Experiment: Biodistribution of 14C-CA4P following periocular injection
Type: in vivo, New Zealand rabbits
Details: retina; 1 mg/ml periocular
RECORDED ENDPOINT: Cmax

// Cmax lookup, molecule = COc1ccc(/C=C\c2cc(OC)c(OC)c(OC)c2)cc1OP(=O)([O-])[O-].[Na+].[Na+] [CA4P, combretastatin A4 disodium phosphate] , result: 4.4 µM

---

Test: Biodistribution of 14C-CA4P following subconjunctival injection
Assay type: in vivo, New Zealand rabbits
Settings: cornea; 100 mg/ml subconjunctival
RECORDED ENDPOINT: Cmax (µM)
Give the quantity in µM, number only.

Given item COc1ccc(/C=C\c2cc(OC)c(OC)c(OC)c2)cc1OP(=O)([O-])[O-].[Na+].[Na+] [CA4P, combretastatin A4 disodium phosphate] , the value recorded as its Cmax is 761
